- system.tested: recombinant human ETA R (Homo sapiens, UniProt P25101)
- Construct: expressed in transfected cells; host or cells: Ltk- cells (membranes)
- Sequence (P25101 21-427): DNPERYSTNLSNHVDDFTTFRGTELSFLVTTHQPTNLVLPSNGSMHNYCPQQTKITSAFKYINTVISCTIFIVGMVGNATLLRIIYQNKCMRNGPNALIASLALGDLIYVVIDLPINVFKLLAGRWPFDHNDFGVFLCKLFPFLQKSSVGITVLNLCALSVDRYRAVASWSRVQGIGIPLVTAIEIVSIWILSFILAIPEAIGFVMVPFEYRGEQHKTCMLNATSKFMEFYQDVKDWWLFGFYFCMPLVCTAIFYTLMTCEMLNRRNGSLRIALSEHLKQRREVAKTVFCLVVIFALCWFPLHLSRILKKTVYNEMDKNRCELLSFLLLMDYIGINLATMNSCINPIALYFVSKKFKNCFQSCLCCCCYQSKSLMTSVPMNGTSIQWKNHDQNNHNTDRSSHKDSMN
- experiment: [125I]-ET-1 radioligand binding, Ltk- cells expressing recombinant human ETA R (HERBA-A)
- study.conditions: [125I]-ET-1 (40 pM), 2 hours at 37° C.
pIC50: −log10 of the molar value.
observed.property: pIC50

COc1cccc(CC(NC(=O)C(c2ccccc2)c2ccccc2)C(=O)O)c1OCCCc1ccccc1 (racemic) = 5.03
COc1cccc(SC(c2cccc(OC)c2)C(NC(=O)C(c2ccccc2)c2ccccc2)C(=O)O)c1 (racemic) = 5.74

[1] O=C(NC(C(=O)O)C(c1ccc2c(c1)OCO2)c1ccc2c(c1)OCO2)c1ccc2c(c1)OCO2 (racemic)
[2] COc1cccc(CC(NC(=O)C(c2ccccc2)c2ccccc2)C(=O)O)c1OCc1ccccc1 (racemic)
Which record would sort first by descending pIC50, 1 or 2 ? Record your answer as the label of the chosen record.
1
(1: 5.89, 2: 5.47)

###

- system.tested: rabbit renal artery vascular smooth muscle cells (ETA) (Oryctolagus cuniculus)
- Construct: endogenous in cells
- Sequence (A5A8K3 21-427): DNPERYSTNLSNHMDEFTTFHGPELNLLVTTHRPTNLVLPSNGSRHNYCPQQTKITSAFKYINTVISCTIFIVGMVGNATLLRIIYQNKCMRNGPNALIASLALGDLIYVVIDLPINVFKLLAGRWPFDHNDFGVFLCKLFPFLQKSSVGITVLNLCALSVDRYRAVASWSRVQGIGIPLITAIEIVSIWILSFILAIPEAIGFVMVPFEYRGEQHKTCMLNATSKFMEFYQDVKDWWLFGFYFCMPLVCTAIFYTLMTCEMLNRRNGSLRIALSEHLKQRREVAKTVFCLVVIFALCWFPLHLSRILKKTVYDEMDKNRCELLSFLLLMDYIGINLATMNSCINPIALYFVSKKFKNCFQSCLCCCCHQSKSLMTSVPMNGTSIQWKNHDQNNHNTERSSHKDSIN
- experiment: [125I]-ET-1 radioligand binding, rabbit renal artery vascular smooth muscle cells (ERBA-A)
- study.conditions: [125I]-ET-1 (40 pM), 2 hours at 37° C.
observed.property: IC50 (µM)

Below, each entry is followed by its recorded IC50 result.
COc1cccc(CC(NC(=O)C(c2ccccc2)c2ccccc2)C(=O)O)c1OCCc1ccccc1 (racemic) = 16
COc1cccc(CC(NC(=O)C(c2ccccc2)c2ccccc2)C(=O)O)c1Oc1ccc([N+](=O)[O-])cc1 (racemic) = 17

[a] COc1cccc(CC(NC(=O)C(c2ccccc2)C2CCCC2)C(=O)O)c1OCc1ccccc1 (racemic)
[b] COc1cccc(CC(NCC(c2ccccc2)c2ccccc2)C(=O)O)c1OCc1ccccc1 (racemic)
Which record would sort first by descending IC50, a or b ? Record your answer as the label of the chosen record.
a
(a: 23 µM, b: 7.1 µM)
